Test: Stability in human liver microsomes
Format: in vitro ADME
Details: 10 μM, 1.0 mg/mL protein, NADPH, 60 min; percent unchanged
For each record, write down the corresponding Stability HLM (1 hr).
# number only, unit % dropped from output

Param item = CCOc1nc(N)nc2c1ncn2[C@@H]1O[C@@H]2COP(=O)(N[C@@H](C)C(=O)OC(C)C)O[C@H]2[C@@]1(C)F (single isomer, unassigned) [Compound 1 Diastereomer 1] ; retrieve measured Stability HLM (1 hr).
11

Now try CCOc1nc(N)nc2c1ncn2[C@@H]1O[C@@H]2COP(=O)(NCCC(=O)OC(C)C)O[C@H]2[C@@]1(C)F (single isomer, unassigned) [Compound 2 Diastereomer 1] .
6.7

Next entry: CCOc1nc(N)nc2c1ncn2[C@@H]1O[C@@H]2COP(=O)(NCCC(=O)OC(C)C)O[C@H]2[C@@]1(C)F (single isomer, unassigned) [Compound 2 Diastereomer 2]
5.7

What do we get for CCOc1nc(N)nc2c1ncn2[C@@H]1O[C@@H]2COP(=O)(N[C@@H](C)C(=O)OC(C)C)O[C@H]2[C@@]1(C)F (single isomer, unassigned) [Compound 1 Diastereomer 2] ?
52

Next molecule up: CCOc1nc(N)nc2c1ncn2[C@@H]1O[C@@H]2COP(=O)(N[C@@H](C)COC(=O)C(C)C)O[C@H]2[C@@]1(C)F (single isomer, unassigned) [Compound 3 Diastereomer 2]
0.3
